tested-system: human Gal-1 (hGal-1)
Sequence (P09382 2-135 limits assumed): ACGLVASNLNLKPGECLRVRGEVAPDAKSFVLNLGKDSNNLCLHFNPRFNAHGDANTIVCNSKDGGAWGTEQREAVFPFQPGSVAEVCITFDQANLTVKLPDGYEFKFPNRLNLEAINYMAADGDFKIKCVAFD
measurement-description: Competitive binding assay: binding of biotinylated hGal-1 to microplate-adsorbed asialofetuin (ASF)
condition-set: Activities on hGal-1; mean values of several measurements
We begin with a simple list: items and their reported IC50.
Number in nM, nothing else.

{"molecule": "CO[C@@H]1[C@@H](n2cc(-c3ccc(C)c(F)c3F)nn2)[C@@H](O)[C@@H](CO)O[C@@H]1Cc1cc(C(C)(CO)CCl)no1 (stereo partly drawn) [Ex 1.263]", "tested-system": "human Gal-1 (hGal-1)", "result-unit": "nM", "IC50": 1030}
{"molecule": "CCC1(c2cc(C[C@H]3O[C@H](CO)[C@H](O)[C@H](n4cc(-c5cc(F)c(F)c(F)c5)nn4)[C@H]3OC)on2)COC1 [Ex 1.212]", "tested-system": "human Gal-1 (hGal-1)", "result-unit": "nM", "IC50": 1600}

Let us examine a further case.
The molecule listed as CO[C@@H]1[C@@H](n2cc(-c3ccccc3)nn2)[C@@H](O)[C@@H](CO)O[C@@H]1CC1CC(C2CCN(C(=O)OC(C)(C)C)CC2)=NO1 (stereo partly drawn) [Ex 1.310] has a reported IC50 of 480

Ref: patent US12319672B2
